target: pre-pro-human insulin

protein	Activity PPI cleavage
trypsin variant SEQ ID NO: 102 (protein) IVGGYTCAANSIPYQVSLNSGSHRCGGSLINSQWVVSAAHCYKPRIQVRLGEHNIHVLEGNEQFINAAKIITHPNFNPNTLDNDIMLIKLSSPATLNSHVATVSLPTSCAAAGTECLISGWGNTSSSGSSMPSLLQCLKAPVLSDSSCKSSYPGQITGNMICVGFLEGGADACQGDSGGPVVCNGQLQGIVSSGYGCAQKNKPGVYTKVCNYVNWIQQTIAAN	yes
trypsin variant SEQ ID NO: 59 (protein) IVGGYTCAANSIPYQVSLNSGSHRCGGSLINSQWVVSAAHCYKSRIQVRLGEHNIDVLEGNEQFINAAKIITHPNFNGNTLDNDIMLIKLSSPATLNSRVATVSLPGSCAAAGTECLISGWGNTKSSGSSYPSLLQCLKAPVLSDSSCKSSYPGQITGNMICVGFLEGGKDACQGDSGGPVVCNGQLQGIVSSGYGCAQKNKPGVYTKVCNYVNWIQQTIAAN	yes
trypsin variant SEQ ID NO: 86 (protein) IVGGYTCAANSIPYQVSLNSGSHRCGGSLINSQWVVSAAHCYKPRIQVRLGEHNIDVLEGNEQFINAAKIITHPNFNPNTLDNDIMLIKLSSPATLNSAVATVSLPTSCAAAGTECLISGWGNTSSSGSSMPSLLQCLKAPVLSDSSCKSSYPGQITGNMICVGFLEGGKDACQGDSGGPVVCNGQLQGIVSSGYGCAQKNKPGVYTKVCNYVNWIQQTIAAN	yes
